FYI, the data here is from ChEMBL document CHEMBL1129996.

Please provide measured ED50 for the entries that follow.
- Organism: Mus musculus
- Protocol Notes: Audiogenic seizures after concomitant treatment with Flumazenil (8.24 uM) in DBA / 2 mice tonic phase
- Format: functional
Please report the result as a number followed by the unit.

Input: Endpoint output: ED50 of "COc1cc2c(cc1OC)C(c1cccc(N)c1)=NNC(=O)C2" . Value?
Output: 18.2 µmol/kg

Input: Request: "COc1cc2c(cc1OC)C(c1ccc(N)cc1)=NN(C)C(=O)C2"
Output: 38.5 µmol/kg

Input: Another compound to check: "COc1cc2c(cc1OC)C(c1ccc(N)cc1)=NNC(=O)C2"
Output: 12 µmol/kg

Input: Now the compound "COc1cc2c(cc1OC)C(c1ccccc1)=NNC(=O)C2"
Output: 35.8 µmol/kg

Input: Another compound: "CC1=NN=C(c2ccc(N)cc2)c2cc3c(cc2C1)OCO3"
Output: 26.7 µmol/kg

----------
What ED50 was measured for each of the following?
- Organism: Mus musculus
- Protocol Notes: Audiogenic seizures after concomitant treatment with Flumazenil (24.72 uM) in DBA / 2 mice clonic phase
- Format: functional

Input: Quick one: ED50 for "COc1cc2c(cc1OC)C(c1cccc(N)c1)=NNC(=O)C2" ?
Output: 29.2 µmol/kg

Input: How about "COc1cc2c(cc1OC)C(c1ccc(N)cc1)=NNC(=O)C2" ?
Output: 12 µmol/kg

Input: What do we get for "CC1=NN=C(c2ccc(N)cc2)c2cc3c(cc2C1)OCO3" ?
Output: 39.5 µmol/kg

Input: Try the compound "COc1cc2c(cc1OC)C(c1ccc(N)cc1)=NN(C)C(=O)C2"
Output: 45.9 µmol/kg

Input: Query "COc1cc2c(cc1OC)C(c1ccccc1)=NNC(=O)C2" next
Output: 50.9 µmol/kg

----------
- Tested on: Mus musculus
- Protocol Notes: Anticonvulsant activity against the maximal electroshock in Swiss mice after 45 minutes pretreatment at a dose range 10-150 uM/kg
- Assay type: functional
Quantity Name: ED50

Input: Tell me the measured ED50 of "COc1cc2c(cc1OC)C(c1ccc([N+](=O)[O-])cc1)=NNC(=O)C2" , please.
Output: > 150 µmol/kg

Input: Try "COc1cc2c(cc1OC)C(c1ccccc1)=NN(C)C(=O)C2" next.
Output: 42.7 µmol/kg

Input: And the next one, "COc1cc2c(cc1OC)C(c1cccc([N+](=O)[O-])c1)=NNC(=O)C2" ?
Output: > 150 µmol/kg

Input: Please answer likewise for "COc1cc2c(cc1OC)C(c1ccc([N+](=O)[O-])cc1)=NN(C)C(=O)C2"
Output: > 150 µmol/kg

Input: Similarly, "COc1cc2c(cc1OC)C(c1ccc(N)cc1)=NNC(=O)C2" ?
Output: 15.9 µmol/kg

Input: Moving on to the next compound: "COc1cc2c(cc1OC)C(c1ccc(C#N)cc1)=NNC(=O)C2"
Output: > 150 µmol/kg

Input: Continue with "COc1cc2c(cc1OC)C(c1ccc(Br)cc1)=NNC(=O)C2"
Output: 123 µmol/kg
